- test-description: COS7 lysate on small-molecule microarray, probe aHis, 635 nm (AID 1123);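 also: z-score combines 667nm fluorescence intensity with signal-to-noise per printed compound spot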
- details: COS7 cell lysate, fluorescence, higher = more signal
Give measured composite z-score for each item. Keep answers brief.
One number for each entry.

These recorded examples may help you get a feel for the data.
COC(=O)[C@@]1(Cc2ccccc2)[C@H]2c3cc(C(=O)N(C)C)n(Cc4ccc(C)o4)c3C[C@H]2CN1C(=O)c1ccccc1: 1.93
CCOC(=O)C1=C[C@@H](c2ccccc2)N(S(=O)(=O)c2ccc(C)cc2)[C@H]1c1ccc(OC)cc1: 1.71
COc1ccc(C#Cc2ccc3c(c2)[C@]2(C(=O)N3)[C@H](C(=O)O)[C@H]3C(=O)O[C@H](c4ccccc4)[C@H](c4ccccc4)N3[C@@H]2c2ccc(O)cc2)cc1: 1.15
COCCCNC(=O)[C@@H]1c2ccccc2C(=O)N(C(C)C)[C@H]1c1ccc(CO)cc1: -0.756
CC(CO)N1C(=O)[C@]2(C)C3C(=O)OCCC/C=C\[C@H]3OC23C=CCN(c2ccc(Cl)cc2)C(=O)[C@@H]13 (stereo not given in full): -0.354
Cc1ccc(C(C)CC(O)C2C=CC3C(=O)N(c4ccccc4)C(=O)C3N2Nc2ccccc2)o1 (stereo not given): 1.55

Hey, quick one: what's composite z-score for each of these?
1. COCCOC(=O)N1C(=O)[C@@]2(c3ccccc31)[C@H](C(=O)NC[C@H](O)c1ccccc1)[C@H]1C(=O)O[C@H](c3ccccc3)[C@H](c3ccccc3)N1[C@@H]2c1ccc(O)cc1
2. NC(=O)[C@@]1(Cc2ccccc2)COC(c2ccc(OCCCO)cc2)=N1
3. O=C1OCCC=C[C@H]2OC34C=CCN(Cn5nnc6ccccc65)C(=O)[C@H]3N(CCCO)C(=O)[C@@H]4C12 (stereo not given in full)

2.28
2.91
-1.05

Hey, quick one: what's composite z-score for each of these?
1. CC(C)NC(=O)[C@@]1(c2ccc([N+](=O)[O-])cc2)CC(=O)N(C2CCCCC2)[C@@H]1c1ccc(CO)cc1
2. CC[C@@H]1C=C(C(=O)O)[C@H](c2ccc(C#N)cc2)N1S(=O)(=O)c1ccc(C)cc1
3. CCOC(=O)C1=C[C@@H](C(C)C)N(S(=O)(=O)c2ccc(C)cc2)[C@H]1c1ccc(C(F)(F)F)cc1
4. C=CCC(OC(C)=O)[C@@H]1[C@@H](N(Cc2ccc(-c3cccc(C(F)(F)F)c3)o2)C(=O)Cc2ccc(OC)cc2)c2cc(OCCCO)ccc2N1C(=O)c1ccc(-c2ccccc2)cc1 (stereo not given in full)

1. 2.17
2. 3.03
3. 2.52
4. 0.206

Hey, quick one: what's composite z-score for each of these?
1. COc1ccc([Si](C)(C)[C@@H]2[C@@H](CC(=O)N3CCC[C@H]3CO)O[C@]3(C(=O)N(Cc4cccc(N5C(=O)COc6ccccc65)c4)c4ccccc43)[C@H]2C)cc1
2. COC(=O)[C@@]1(Cc2ccc(F)cc2)[C@H]2c3cc(C(=O)N4CCCC4)n(CCc4c[nH]c5ccccc45)c3C[C@H]2CN1C(=O)c1ccccc1

0.664
3.17
